- TESTED TARGET: AHR (UniProt P35869)
- Construct: IC50
- Sequence (P35869 1-848): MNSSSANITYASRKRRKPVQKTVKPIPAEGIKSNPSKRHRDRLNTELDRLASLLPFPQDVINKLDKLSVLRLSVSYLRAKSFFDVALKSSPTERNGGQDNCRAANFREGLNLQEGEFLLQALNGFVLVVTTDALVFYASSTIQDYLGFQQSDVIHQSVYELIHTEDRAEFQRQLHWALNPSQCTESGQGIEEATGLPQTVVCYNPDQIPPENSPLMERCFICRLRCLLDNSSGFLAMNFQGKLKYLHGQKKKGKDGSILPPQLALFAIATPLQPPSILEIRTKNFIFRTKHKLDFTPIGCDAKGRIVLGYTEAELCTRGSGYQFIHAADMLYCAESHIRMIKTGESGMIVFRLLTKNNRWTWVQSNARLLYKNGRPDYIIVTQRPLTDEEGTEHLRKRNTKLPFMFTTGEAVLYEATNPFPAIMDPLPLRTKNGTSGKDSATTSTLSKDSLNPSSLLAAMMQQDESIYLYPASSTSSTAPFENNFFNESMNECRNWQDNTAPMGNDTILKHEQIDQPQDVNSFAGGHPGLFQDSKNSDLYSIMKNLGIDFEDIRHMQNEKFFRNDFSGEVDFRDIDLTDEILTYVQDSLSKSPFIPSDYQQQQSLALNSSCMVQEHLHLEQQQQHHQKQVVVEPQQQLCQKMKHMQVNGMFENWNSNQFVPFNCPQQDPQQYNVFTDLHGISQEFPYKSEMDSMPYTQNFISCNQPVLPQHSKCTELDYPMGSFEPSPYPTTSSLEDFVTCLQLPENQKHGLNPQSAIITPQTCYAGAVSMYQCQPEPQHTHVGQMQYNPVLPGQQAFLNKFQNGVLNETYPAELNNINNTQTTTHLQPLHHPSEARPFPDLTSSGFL
- TEST DETAILS: DRE-Luciferase Reporter Assay (Alternate Method) (Example 1B)
- Format: cell-based, murine or human
- EXPERIMENTAL CONDITIONS: cell line and AHR activating ligand not specified
pIC50: −log10 of the molar value.
// reported pIC50 for each item listed

COMPOUND	pIC50
CC(C)c1cnn2c(C(=O)NCc3ccc(O)cc3)cc(-c3cncc(F)c3)nc12	< 5.82

Task: Name the recorded pIC50 of the compound listed here: CC(C)c1cnn2c(N[C@@H]3CCc4nc(N)sc4C3)nc(-c3cncc(F)c3)nc12 [I-128b]
Result: < 5.82

Task: Name the recorded pIC50 of the compound listed here: Cc1[nH]c2ccc(F)cc2c1CCNc1nc(-c2cncc(F)c2)nc2c1ncn2C(C)C
Result: > 6.30

Task: Name the recorded pIC50 of the compound listed here: CC(C)c1cnn2c(N[C@@H]3CCc4ccc(O)cc4C3)cc(-c3cncc(F)c3)nc12 [I-94a]
Result: < 5.82

Task: Name the recorded pIC50 of the compound listed here: Cc1[nH]c2c(F)cccc2c1CCNc1nc(-c2cncc(F)c2)nc2ccnn12
Result: > 6.30

Values compiled from patent US11358969B2.
